Hi, quick share: literature pIC50 data for SYK kinase (Homo sapiens, UniProt P43405), several sources combined.
pIC50: −log10 of the molar value.

query: For the compound CC(C)C(O)c1n[nH]c2cc(Nc3nc4c(-c5cnn(C)c5)nccn4n3)ccc12 (stereo not shown) , what pIC50 is on record?
result: 6.52 to 7.00

query: Repeat for the following compound: `CC(C)c1nc(Nc2cnn(C3CCN(C)CC3)c2)c2[nH]ncc2n1`
result: 6.00 to 7.00

query: What about this compound? `CC(C)(O)Cn1cc(Nc2nc3ccc(S(C)(=O)=O)cc3c3cn[nH]c23)cn1`
result: 7.00 to 8.00

Others:
query: # query: pIC50 of entry `COc1cc(Nc2nc3cncc(-c4cnn(C)c4)n3n2)ccc1CN1CCOCC1`
result: 5.30 to 6.00

query: Could you do the same for `CC(C)(C)c1cc(NC(=O)Nc2ccc(Oc3ccnc(Nc4ccc5c(c4)CS(=O)(=O)C5)n3)c3ccccc23)n(-c2ccc(OCCN3CCOCC3)cc2)n1` , please?
result: 7.70

====

pIC50: −log10 of the molar value.
Literature pIC50 values, system: UniProt:P43405.

Here is how some compounds turned out for pIC50.
query: What measured pIC50 goes with CC(O)c1ccc(-c2cc3nccnc3c(OC[C@@H]3CN(S(C)(=O)=O)CCO3)n2)cc1 (some centres unmarked) ?
result: 7.24

query: Same read-out for `Cc1ccnc(Nc2cccc(-c3cnc(-c4cccc(C#N)c4)s3)n2)c1` ?
result: 5.00 to 6.00

Next compound, please.
query: I am curious: what pIC50 value has been reported for `COCCn1ncc(Nc2nc(-c3ccco3)nc3cn[nH]c23)c1N(C)C` ?
result: 6.00 to 7.00

====

From various publications: IC50 for SYK kinase (Homo sapiens).

Please review the following examples before continuing.
query: Which IC50 value is on record for `COCCOCCOCCOc1cc(Nc2nccc(Oc3ccc(NC(=O)Nc4cc(C(C)(C)C)cc(P(C)(C)=O)c4OC)c4ccccc34)n2)cc(OC)c1` ?
result: 30 nM

query: Now the compound CC1C(=O)NCCN1c1ncc(-c2cccc(Nc3nccc(C4CC4)n3)c2)o1 (stereo not shown)
result: ≤ 100 nM

query: Param item: `COc1cc(-c2cc3nccc(-c4ccc5c(c4)NC(=O)C5)c3o2)cc(OC)c1OC`
result: < 300 nM

query: Same question for `CN(c1ccccc1)c1nccc(Oc2ccc(NC(=O)Nc3cc(C(C)(C)C)nn3-c3ccc(P(C)(C)=O)cc3)c3ccccc23)n1` please.
result: > 1000 nM

query: Try `COCCOCCOCCS(=O)(=O)c1ccc(Nc2cc(Oc3ccc(NC(=O)Nc4cc(C(C)(C)C)cc(NS(C)(=O)=O)c4OC)c4ccccc34)ccn2)cc1OC` next.
result: 831 nM

Continuing:
query: Would you mind telling me what IC50 value was observed for `Cc1cc(C)cc(Nc2nc3c(NCCN)nccn3n2)c1` ?
result: 3000 to 50000 nM

query: What do you have for `CNc1ncc2cc(-c3cc(NC(=O)c4ccn(-c5ccc(F)cc5)n4)ccc3C)c(=O)n(C)c2n1` ?
result: 1000 to 10000 nM

query: Repeat for the following compound: CC1CCC(C)N1c1nccn2nc(Nc3ccc4c(c3)NC(=O)C4(C)C)nc12 (stereo not shown)
result: < 100 nM

query: What do you have for CNS(=O)(=O)N1CCOC(COc2nc(-c3ccc(C(C)(C)O)cc3)cc3nccnc23)C1 (stereo not shown) ?
result: 79 nM

query: Repeat for the following compound: `COc1ccc(C(=O)O)cc1-c1cc2nccc(-c3c(OC)cccc3OC)c2o1`
result: 300 to 3000 nM

query: Entry `Cc1ccc(-n2nc(C(C)(C)C)cc2NC(=O)Nc2ccc(Oc3ccnc(Nc4cc(Cl)c5[nH]ncc5c4)n3)c3ccccc23)cc1` please
result: 711 nM

query: `Cn1c(=O)c(Nc2ccc(N3CCC(O)(C(F)(F)F)CC3)cn2)cc2cc(-c3cc[nH]n3)ccc21` , same question.
result: 58.4 nM

query: Then what about the compound `CC1(C)C(=O)Nc2cc(Nc3nc4c(-c5cccc(S(N)(=O)=O)c5)nccn4n3)ccc21` ?
result: < 100 nM

query: For `c1ccc(Nc2nc3c(-c4ccccc4)nccn3n2)cc1` then?
result: 300 to 3000 nM

====

Kindly find below pIC50 information for SYK kinase (Homo sapiens) taken from the literature.
pIC50: −log10 of the molar value.

query: # pIC50 lookup, item `CC(C)c1cc(NC(=O)Nc2ccc(Oc3ccnc(Nc4ccc5[nH]ncc5c4)n3)c3ccccc23)n(-c2cccc(OCCN3CCOCC3)c2)n1`
result: 8.52

More entries:
query: # query: pIC50 of entry CN(c1nccn2nc(Nc3ccc4c(c3)NC(=O)C4(C)C)nc12)C1CCCNC1 (stereo not shown)
result: 5.52 to 6.52

query: Entry to check: `Cc1noc(C)c1-c1cc2nccc(Nc3ccc4[nH]ccc4c3C)c2o1`
result: 5.52 to 6.52

query: Similarly, `Cc1nn(C(C)C)cc1Nc1nc(-c2ccoc2)nc2cn[nH]c12` ?
result: 6.00 to 7.00

====

This section presents pIC50 values reported for SYK kinase (Homo sapiens, UniProt P43405) in the literature.
pIC50: −log10 of the molar value.

query: For `Cc1ncc2nc(Nc3ccc(N4CCOCC4)cc3)nn2c1-c1cnn(C)c1` , what is its reported pIC50?
result: 5.30 to 6.00

query: Okay, and `CN1CCN(c2ccc(-c3cc4nccnc4c(OC[C@@H]4CN(S(N)(=O)=O)CCO4)n3)cc2)CC1` ?
result: 7.70

query: Thanks! And `Fc1cc(-c2cc3nccnc3c(O[C@@H]3CCOC3)n2)ccc1N1CCOCC1` ?
result: 7.18

query: Can you handle `CC1(C)C(=O)Nc2cc(Nc3nc4c(N[C@H]5CCCNC5)nccn4n3)ccc21` next?
result: > 7.00

query: Do the same for `CCc1cnc(Nc2cc(COc3ccc(NC(=O)Nc4cc(C(C)(C)C)nn4-c4ccc(C)cc4)c4ccccc34)ccn2)cn1` please
result: < 4.80

query: Follow-up item: `CN1CCN(c2ccc(Nc3nc(-c4ccoc4)nc4cn[nH]c34)cn2)CC1`
result: 6.00 to 7.00

Now look at this entry.
query: Could you share which pIC50 value was measured for `CC1(C)C(=O)Nc2cc(Nc3nc4c(N5C[C@@H]6C[C@H]5CN6)nccn4n3)ccc21` ?
result: 5.52 to 6.52

====

pIC50: −log10 of the molar value.
Published pIC50 for SYK kinase (Homo sapiens, UniProt P43405), assembled from different documents, is shown next.

Example results:
query: Give the measured pIC50 of CC(C)C(C)n1cc(Nc2nc3ccc(S(C)(=O)=O)cc3c3c[nH]nc23)cn1 (centres unmarked) .
result: 7.00 to 8.00

query: Similarly, `CC#CC(=O)N1CCC[C@H]1c1nc(-c2ccc(Oc3ccccc3)cc2)c2c(N)nccn12` ?
result: < 6.00

query: Also need `Cc1ccn2ncc(-c3nc(N[C@@H]4CCCC[C@@H]4N)c(F)c4c3C(=O)N[C@@H]4C)c2c1` , thanks.
result: 7.30

query: Then `Cn1cc(-c2ccnc3cc(-c4ccc(N5CCOCC5)nc4)oc23)cn1` ?
result: 5.52 to 6.52

query: Same question for `CC(C)(C)OC(=O)N1CCN2c3ccc(Nc4ncc(C(N)=O)c(NC5CC5)n4)cc3OC[C@H]2C1` please.
result: > 7.30

query: Same lookup for `COc1ccc(Nc2nc3c(-c4cccc(CN)c4)nccn3n2)cn1` , please.
result: 5.52 to 6.52

query: Repeat with `Cn1ncc2cc(-c3cncc4nc(Nc5ccc6c(c5)NC(=O)C6(C)C)nn34)ccc21`
result: > 6.00

# next molecule below
query: What does the record list as pIC50 for `COc1c(NC(=O)Nc2ccc(Oc3ccnc(Nc4ccn(C)n4)c3)c3ccccc23)cc(C(C)(C)C)cc1P(C)(C)=O` ?
result: 7.27

====

pIC50: −log10 of the molar value.
Study the reported pIC50 values for SYK kinase (Homo sapiens) given below; they originate from different publications.

Solved entries:
query: Consider the compound `CCC1(O)CCN(c2nccn3nc(Nc4ccc5c(c4)NC(=O)C5(C)C)nc23)CC1` and give its measured pIC50.
result: > 7.00

query: Next entry: `CCOc1ccc(-c2nc([C@H]3C[C@@H](O)CN3C(C)=O)n3c2cnc2[nH]ccc23)cc1C`
result: > 8.00

query: Same question, COc1cc(Nc2nc3c(N4CCCC(C(=O)NCCO)C4)nccn3n2)cc(OC)c1 (centres unmarked) this time
result: 4.30 to 5.52

query: Same for `CC(=O)N1C[C@H](O)C[C@@H]1c1nc(-c2ccc3c(c2)CCCO3)c2cnc3[nH]ccc3n12`
result: 7.52 to 8.00

query: How about `Cc1ccc(Nc2cccc(-c3cnc(N4CCNC(=O)C4)o3)n2)nc1` ?
result: > 6.00

query: Check `CS(=O)(=O)c1cccc2nc(Nc3ccc4c(c3)NC(=O)CCC4)c3[nH]ncc3c12` too.
result: 6.00 to 7.00

query: Another compound: `COc1cc(Nc2cc(Oc3ccc(NC(=O)Nc4cc(C(C)(C)C)cc(NS(C)(=O)=O)c4OC)c4ccccc34)ccn2)ccc1S(=O)(=O)CCCN1CCOCC1`
result: 6.84

Continue with the next compound.
query: Which value of pIC50 has been reported for `COc1ccc(-c2noc(CN)n2)cc1-c1cc2nccc(-c3c(OC)cccc3OC)c2o1` in the records?
result: > 7.00
